Target: Recombinant human KIF18A (1-467His-tagged) protein (Homo sapiens, UniProt Q8NI77)
Construct: Recombinant human KIF18A (1-467His-tagged) protein; His
Sequence (Q8NI77 1-467): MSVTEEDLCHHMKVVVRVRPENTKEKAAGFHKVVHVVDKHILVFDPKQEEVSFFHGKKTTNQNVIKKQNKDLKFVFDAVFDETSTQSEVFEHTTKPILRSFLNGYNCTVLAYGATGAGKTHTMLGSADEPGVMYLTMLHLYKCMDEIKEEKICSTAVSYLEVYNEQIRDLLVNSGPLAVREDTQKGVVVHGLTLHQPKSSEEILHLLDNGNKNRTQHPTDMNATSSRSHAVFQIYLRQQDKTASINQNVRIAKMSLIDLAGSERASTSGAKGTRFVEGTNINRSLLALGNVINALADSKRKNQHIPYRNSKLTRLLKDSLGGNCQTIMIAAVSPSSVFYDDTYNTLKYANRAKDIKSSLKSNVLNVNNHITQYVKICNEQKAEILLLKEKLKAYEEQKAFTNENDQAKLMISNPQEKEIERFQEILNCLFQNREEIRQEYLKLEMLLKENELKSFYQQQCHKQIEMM
Sequence (P02550 whole entry partner): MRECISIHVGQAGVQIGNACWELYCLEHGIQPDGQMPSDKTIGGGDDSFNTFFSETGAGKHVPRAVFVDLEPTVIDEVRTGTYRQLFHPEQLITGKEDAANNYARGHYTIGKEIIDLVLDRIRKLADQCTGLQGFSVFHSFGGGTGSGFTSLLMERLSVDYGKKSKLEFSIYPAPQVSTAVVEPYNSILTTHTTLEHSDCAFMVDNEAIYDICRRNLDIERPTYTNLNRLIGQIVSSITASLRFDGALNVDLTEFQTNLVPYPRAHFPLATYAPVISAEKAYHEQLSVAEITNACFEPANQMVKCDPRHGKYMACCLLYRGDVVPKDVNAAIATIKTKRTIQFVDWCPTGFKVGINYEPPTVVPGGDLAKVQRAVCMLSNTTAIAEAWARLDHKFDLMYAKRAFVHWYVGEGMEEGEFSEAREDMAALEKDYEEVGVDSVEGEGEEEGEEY
Sequence (P02554 whole entry partner): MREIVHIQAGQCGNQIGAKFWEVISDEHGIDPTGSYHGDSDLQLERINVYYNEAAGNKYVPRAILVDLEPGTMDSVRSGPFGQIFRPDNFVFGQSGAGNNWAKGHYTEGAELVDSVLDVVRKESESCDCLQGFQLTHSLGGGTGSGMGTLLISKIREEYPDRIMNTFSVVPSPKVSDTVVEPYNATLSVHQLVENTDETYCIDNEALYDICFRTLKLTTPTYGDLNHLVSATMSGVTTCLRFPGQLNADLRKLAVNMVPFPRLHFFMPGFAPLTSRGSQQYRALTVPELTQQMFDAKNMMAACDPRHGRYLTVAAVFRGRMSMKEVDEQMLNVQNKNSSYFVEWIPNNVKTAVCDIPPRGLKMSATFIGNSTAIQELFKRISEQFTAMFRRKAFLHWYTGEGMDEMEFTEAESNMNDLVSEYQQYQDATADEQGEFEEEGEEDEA
Test: KIF18A enzyme assay (microtubule-stimulated ATPase activity, ADP-Glo)
Conditions: 30 nM KIF18A, 75 μM ATP, 30 μg/mL pig microtubules; read-out: Inhibitory activity against KIF18A IC50
The reader will find reported IC50 values listed item by item below.

Use the examples below as a reference point.
COc1ccc(NC(=O)c2ccc(NS(=O)(=O)[C@H](C)CO)cc2N2CCC3(CC2)CC3)nc1N1CCC(F)(F)CC1 ≤ 100 nM
O=C(Nc1ccc(OCF)c(OCCC(F)(F)F)n1)c1ccc(NS(=O)(=O)CCO)cc1N1CCC2(CC1)CC2 ≤ 100 nM
CSc1ccc(NC(=O)c2cnc(NS(=O)(=O)CCO)cc2N2CCC3(CC2)CC3)cc1N1CCC(F)(F)CC1 ≤ 100 nM

Query block: Kindly indicate its recorded IC50. Item: "CSc1ccc(NC(=O)c2ccc(NS(=O)(=O)CCO)cc2N2CCC3(CC2)CC3)nc1N1CCO[C@H](C)C1"
Result block: ≤ 100 nM

Query block: Look up IC50 of "O=C(Nc1ccc([N+](=O)[O-])c(N2CCC(F)CC2)c1)c1ccc(S(=O)(=O)NCCO)cc1N1CCC2(CC1)CC2" and report it.
Result block: ≤ 100 nM

Query block: Give me measured IC50, please, for this compound: "O=C(Nc1ccc(NS(=O)(=O)CCO)cc1N1CCC2(CC1)CC2)c1ccc(OCF)c(N2CCC3(CC3)C2)c1"
Result block: ≤ 100 nM

Query block: Provide IC50 value for the following compound: "C[C@H](CO)NS(=O)(=O)c1cc(N2CCC3(CC2)CC3)c(C(=O)Nc2ccc([N+](=O)[O-])c(N3CCO[C@H](C)C3)n2)cn1"
Result block: ≤ 100 nM

* * *

Molecular target: Recombinant human KIF18A (1-467His-tagged) protein (Homo sapiens, UniProt Q8NI77)
Construct: Recombinant human KIF18A (1-467His-tagged) protein; His
Assay: KIF18A enzyme assay (microtubule-stimulated ATPase activity, ADP-Glo)
Conditions: 30 nM KIF18A, 75 μM ATP, 30 μg/mL pig microtubules; read-out: Inhibitory activity against KIF18A IC50
pIC50: −log10 of the molar value.
measurement_name: pIC50

Some solved entries appear below for comparison.
molecule	pIC50
C[C@@H](CO)NS(=O)(=O)c1cc(N2CCC3(CC2)CC3)c(C(=O)Nc2ccc(OCF)c(N3CCC(F)(F)CC3)n2)cn1 [Compound 509]	≥ 7.00
C[C@@H](CO)S(=O)(=O)Nc1ccc(C(=O)Nc2ccc([N+](=O)[O-])c(N3CCC(F)(F)CC3)c2)c(N2CCC3(CC2)CC3)c1 [Compound 13]	≥ 7.00

Field: next molecule
Query block: # lookup: Recombinant human KIF18A (1-467His-tagged) protein (Homo sapiens, UniProt Q8NI77) pIC50, key = O=C(Nc1ccc(OCF)c(N2CCOCC2)c1)c1cnc(S(=O)(=O)NCCO)cc1N1CCC2(CC1)CC2 [Compound 476]
Result block: ≥ 7.00

* * *

Molecular target: Recombinant human KIF18A (1-467His-tagged) protein (Homo sapiens, UniProt Q8NI77)
Construct: Recombinant human KIF18A (1-467His-tagged) protein; His; made in house
Test: KIF18A enzyme assay (microtubule-stimulated ATPase activity, ADP-Glo)
Type: biochemical
Conditions: 30 nM KIF18A, 75 μM ATP, 30 μg/mL pig microtubules; read-out: Inhibitory activity against KIF18A IC50
Entries and their IC50 values follow.

molecule	IC50
C[C@H](CO)S(=O)(=O)Nc1cc(N2CCC3(CC2)CC3)c(C(=O)Nc2ccc(OCF)c(N3CCC(F)(F)CC3)n2)cn1 [Compound 494]	≤ 100 nM
COc1ccc(C(=O)Nc2ccc(NS(=O)(=O)CCO)cc2N2CCC3(CC2)CC3)nc1N1CCOCC1 [Compound 332]	≤ 100 nM
CC(C)(CO)Nc1nc(C(=O)Nc2ccc(S(=O)(=O)NCCO)cc2N2CCC3(CC2)CC3)ccc1OCF [Compound 571]	100 to 500 nM
C[C@H]1CN(c2cc(NC(=O)c3ccc(S(=O)(=O)NCCO)cc3N3CCC4(CC3)CC4)ccc2[N+](=O)[O-])CCO1 [Compound 19]	≤ 100 nM

Query block: Identify measured IC50 associated with C[C@H](CO)NS(=O)(=O)c1cc(N2CCC3(CC2)CC3)c(NC(=O)c2ccc([N+](=O)[O-])c(N3CCO[C@H](C)C3)n2)cn1 [Compound 256]
Result block: 100 to 500 nM

Query block: Read off the recorded IC50 for CSc1ccc(NC(=O)c2cnc(NS(=O)(=O)CCO)cc2N2CCC3(CC2)CC3)nc1N1CC(F)(F)C1 [Compound 628]
Result block: ≤ 100 nM

Query block: For the molecule COc1ccc(NC(=O)c2ccc(S(=O)(=O)N[C@H](C)CO)cc2N2CCC3(CC2)CC3)nc1N1CCO[C@H](C)C1 [Compound 288] , give its reported IC50.
Result block: ≤ 100 nM

Query block: State its IC50: C[C@@H]1CN(c2nc(C(=O)Nc3ccc(NS(=O)(=O)[C@@H](C)CO)cc3N3CCC4(CC3)CC4)ccc2[N+](=O)[O-])CCO1 [Compound 175]
Result block: ≤ 100 nM

Query block: Give reported IC50 value for O=C(Nc1ccc(NS(=O)(=O)CCO)cc1N1CCC2(CC1)CC2)c1ccc([N+](=O)[O-])c(N2CC(F)(F)C2)n1 [Compound 164]
Result block: ≤ 100 nM
